Form field: EC50 [nM], PD1/PD-L1 blockade bioassay (one value per entry).
molecular target: human PD-1 (NM_005018.2) over-expressed on cells (human, UniProt Q15116 25-288); assay: cell-based or functional assay
Sequence (Q15116 25-288): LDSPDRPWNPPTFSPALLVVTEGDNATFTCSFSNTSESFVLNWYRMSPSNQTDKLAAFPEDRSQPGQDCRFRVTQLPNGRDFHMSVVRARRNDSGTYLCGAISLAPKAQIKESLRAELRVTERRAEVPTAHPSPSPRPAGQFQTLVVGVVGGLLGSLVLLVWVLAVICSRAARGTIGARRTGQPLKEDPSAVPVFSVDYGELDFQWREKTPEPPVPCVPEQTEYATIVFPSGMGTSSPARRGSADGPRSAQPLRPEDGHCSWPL
Give just the number in nM; leave the unit off.

Check out these entries, answers already filled in.
Binder | Property | Number
PD1-45D6(A/3H7) (antibody, V domains shown, scFv-phage in the screening ELISA; whole IgG in the other assays; also called 45D6-3H7; PD1 45D6 3H7) VH: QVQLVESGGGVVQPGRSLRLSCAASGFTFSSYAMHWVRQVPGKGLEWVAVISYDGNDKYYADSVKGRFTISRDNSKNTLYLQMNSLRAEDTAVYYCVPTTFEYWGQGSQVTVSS VL: DIVMTQTPLSLPVTPGEPASISCRSSQSLLDSDDGNTYLDWYLQKPGQSPQLLIYTLSHRASGVPGRFSGSGSGTEFNLRISRVEAEDVGIYYCMQRVEFPFTFGQGTKLEIK | EC50 [nM], PD1/PD-L1 blockade bioassay | 1.98
PD1-45D6(A/4H6) (antibody, V domains shown) VH: QVQLVESGGGVVQPGRSLRLSCAASGFTFSSYAMHWVRQAPGKGLEWVAVISYDGNDKYYADSVKGRFTISRDNSKNTLYLQMNSLRAEDTAVYYCVPTTFEYWGQGTLVTVSS VL: DIVMTQTPLSLPVTPGEPASISCRSSQSLFDSDDGNTYLDWYLQKPGQSPQLLIYTLSHRASGVPDRFSGSGSGTDFTLKISRVEAEDVGLYYCMQRVEFPFTFGQGTKLEIK | EC50 [nM], PD1/PD-L1 blockade bioassay | 1.19

Query: Please look up its EC50 [nM], PD1/PD-L1 blockade bioassay: PD1-45D6(A/4C1) (antibody, V domains shown) VH: QVQLVESGGGVVQPGRSLRLSCAASGFTFSSYAMHWVRQAPGKGLEWVAVISYDGNDKYYADSVKGRFTISRDNSKNTLYLQMNSLRAEDTAVYYCVPTTFEYWGQGTLVTVSS VL: DIVMTQTPLSLPVTPGEPASISCRSSQSLLDSDDGNTYLDWYLQKPGQSPQLLIYTLSHRASGVPDRFSGSGSGTDFTLKISRVEAEDVGIYYCMQRVEFPFTFGQGTKLDIK
Response: 1.76
